Cited source: PubChem BioAssay

Below, each of the compounds is paired with its reported z-score value.
- PROTOCOL DESCRIPTION: CREB reporter modulators under forskolin, primary screen, cell-based, PC12, CRE-LacZ reporter, forskolin-stimulated (AID 1146);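 also: PC12 cells with 6xCRE LacZ reporter stimulated by forskolin 10 µM; beta-galactosidase reporter signal reflecting CREB driven transcription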
- CONDITION SUMMARY: luminescence, 4.5 h, higher = more signal, called active from +8 up or from −8 down
QUANTITY MEASURED: z-score

CN(C)C(=O)[C@@]1(Cc2ccccc2N=[N+]=[N-])N=C(c2ccc(OCCCO)cc2)O[C@H]1c1ccccc1CN=[N+]=[N-]	-1.39
CCOC(=O)C[C@H]1[C@H](OC(=O)c2cc3ccccc3oc2=O)[C@@H](NC(=O)c2ccc3ccccc3c2)c2cc(OCCCO)ccc2N1C(=O)c1ccc2ccccc2n1	-2.03
CCN1C(C)=C(C(=O)OC)[C@@H](c2ccccc2)N2C(=O)[C@](O)(C(=O)OC)[C@@H](c3ccccc3)C(C(C)=O)=C12	-1.04
C[C@@H]1CC[C@H]2C(=O)N3[C@@H](CC[C@@H](C)[C@@H]3c3cccc(N4CCOCC4)c3)C(=O)N2[C@H]1c1cccc(Br)c1	-0.902
Cc1ccc(S[C@]2(C(=O)O)CC(=O)N(Cc3cc(C(F)(F)F)cc(C(F)(F)F)c3)[C@@H]2c2ccc(CO)cc2I)cc1	0.859
CCOC(=O)C1=CC[C@@H](c2ccc(-c3ccc(OCc4ccccc4)cc3)c(OC)c2)N(S(=O)(=O)c2ccc(C)cc2)[C@H]1c1ccccc1	0.1
CCOC(=O)C[C@H]1[C@H](OC(=O)Cc2ccc3c(c2)OCO3)[C@@H](NC(=O)c2ccc3ccccc3c2)c2cc(OCCCO)ccc2N1C(=O)Cc1ccc(OC)cc1	0.135
COCCOC(=O)N1C(=O)[C@@]2(c3cc(C#CCNC(N)=O)ccc31)[C@H](c1ccc(OCCO)cc1)N1[C@H](c3ccccc3)[C@H](c3ccccc3)OC(=O)[C@H]1[C@@H]2C(=O)N1CCCCCCC1	-1.91
CC(C)N1CC=CC23O[C@@H]4/C=C\CCCOC(=O)C4[C@H]2C(=O)N(CCCCCO)[C@@H]3C1=O (some centres not stated)	0.392
COc1cc2c(cc1OC)CN(C(=O)[C@@H]1[C@H]3C(=O)O[C@H](c4ccccc4)[C@H](c4ccccc4)N3[C@H](c3ccccc3OCCO)[C@@]13C(=O)Nc1ccccc13)CC2	-1.31
CCCCO[C@H]1C[C@H]2C(Br)=C[C@@]1(CO)C(=O)[C@]21CO1	-0.67
COC(=O)c1c(CC[C@@H](CO)NC(=O)N[C@H](Cn2cc(-c3cncn3C)nn2)C(C)C)oc(C(C)=O)c1C(=O)OC	-1.4
O=C1c2ccccc2[C@@]2(Cc3ccccc3N(CC(F)(F)F)C2=O)[C@H](c2ccc(CO)cc2)N1C1CCCCC1	-0.838
CCN1C(C)=C(C(=O)OC)[C@@H](c2ccccc2)N2C(=O)[C@@]3(C(=O)OC)O[C@@]12[C@@H]1C(=O)N(C)C(=O)[C@@H]13	-1.21
O=C1NC(=O)C2C1C=CC(C(O)C=Cc1ccc([N+](=O)[O-])cc1)N2Nc1ccccn1 (configuration not stated)	-0.28
COc1ccc(CCN2C(=O)[C@@]3(c4ccc([N+](=O)[O-])cc4)CC(=O)N(CC45CC6CC(CC(C6)C4)C5)[C@@H]3c3ccc(CO)cc32)cc1	-0.036
O=C1c2ccccc2[C@](Cc2ccccc2I)(C(=O)NCC(F)(F)F)[C@H](c2ccc(CO)cc2)N1Cc1ccccc1C(F)(F)F	-0.112
CN(C)CCCC[C@@H]1NC(=O)[C@@H]2C[C@H](C(=O)O)[C@H](c3ccc(O)cc3)N2C1=O	-0.183
CCOC(=O)C[C@H]1[C@H](OC(=O)c2ccccc2-c2ccccc2)[C@@H](NC(=O)c2ccc(-c3ccccc3)cc2)c2cc(OCCCO)ccc2N1C(=O)Cc1ccc(OC)cc1	0.41
COC(=O)C1=C(C)N(Cc2ccccc2)c2c(C(=O)OC)c(C(=O)OC)c(C(=O)OC)c(=O)n2[C@@H]1c1ccccc1	-1.23
CC(C)NC(=O)[C@@]1(Cc2ccccc2I)c2ccccc2C(=O)N(C2CCCCC2)[C@H]1c1ccc(CO)cc1	0.24
COc1cc(CO)cc(I)c1O[C@H]1C=C(C(=O)NCCO)C[C@@H](N(CC2CCCCC2)C(=O)c2cc3ccccc3oc2=O)[C@@H]1O	-1.27
CO[C@@H]1COC(=O)CC=C[C@H](C)COC(=O)[C@H](Cc2ccccc2)NC(=O)CC=C[C@H]1C	-1.63
CCOC(=O)[C@H]1C/C=C/C[C@H](C(=O)OCC)C(=O)O[C@H]2[C@@H](OC)O[C@H](CO)[C@@H](OC(=O)Nc3ccc(Br)cc3)[C@@H]2OC1=O	-1.23
CC(C)=C1C(=O)C(c2ccccc2)=C2CN3C(=O)N(CCc4ccccc4)C(=O)[C@]3(Cc3ccccc3)[C@H]21	0.379
C[C@@H]1CC[C@H]2C(=O)N3CCC[C@H]3C(=O)N2[C@H]1c1ccc(Br)cc1	-0.0739
CN(C)CCCC[C@@H]1NC(=O)[C@@H]2C[C@H](C(=O)NCCCCCNC(=O)CS)[C@H](c3ccc(O)cc3)N2C1=O	-1
